System: Setaria glauca (L.) Beauv.
TEST DETAILS: Bioassay of herbicidal activity in greenhouse (further screening)
Assay type: in vivo
STATED CONDITIONS: post-emergence; dose 15 g a.i./hm^2
ENDPOINT NAME: Growth inhibition rate, Post-emergence treatment, Setaria glauca (L.) Beauv.
Report field: quantity (unit follows the number).

Answered cases to consult:
- MOLECULE: "Cn1c(C(F)(F)F)cc(=O)n(-c2cc(C3=NOC(C)(COC(=O)C4CC4)C3)c(Cl)cc2F)c1=O (stereo not shown)"
  RESULT: "45%"
- MOLECULE: "CC(=O)OCC1(C)CC(c2cc(-n3c(=O)cc(C(F)(F)F)n(C)c3=O)c(F)cc2Cl)=NO1 (stereo not shown)"
  RESULT: "80%"
- MOLECULE: "CCCOC(=O)C1(C)CC(c2cc(-n3c(=O)cc(C(F)(F)F)n(C)c3=O)c(F)cc2Cl)=NO1 (stereo not shown)"
  RESULT: "90%"

Request: API: value(readout= Growth inhibition rate, Post-emergence treatment, Setaria glauca (L.) Beauv., system= Setaria glauca (L.) Beauv., query= COC(=O)C1(C)CC(c2cc(-n3c(=O)cc(C(F)(F)F)n(C)c3=O)c(F)cc2Cl)=NO1 (stereo not shown) )
Result: 65%

Request: What reported Growth inhibition rate, Post-emergence treatment, Setaria glauca (L.) Beauv. corresponds to CC(=O)OCCOC(=O)C1(C)CC(c2cc(-n3c(=O)cc(C(F)(F)F)n(C)c3=O)c(F)cc2Cl)=NO1 (stereo not shown) on Setaria glauca (L.) Beauv.?
Result: 60%

Request: Look up Growth inhibition rate, Post-emergence treatment, Setaria glauca (L.) Beauv. with Setaria glauca (L.) Beauv. for this molecule: CCCCOC(=O)C1(C)CC(c2cc(-n3c(=O)cc(C(F)(F)F)n(C)c3=O)c(F)cc2Cl)=NO1 (stereo not shown)
Result: 80%

Request: Observed Growth inhibition rate, Post-emergence treatment, Setaria glauca (L.) Beauv. on Setaria glauca (L.) Beauv. for CCOC(=O)C1(C)CC(c2cc(-n3c(=O)cc(C(F)(F)F)n(C)c3=O)c(F)cc2Cl)=NO1 (stereo not shown) , please.
Result: 98%
